Provide the recorded optical density for the entries that follow.
experimental-target: human Fc (human)
assay-summary: ELISA; negative control
Your answer is read as OD, so omit the unit and give the number.

Requested field: optical density. Item: 374_F01 (antibody, V domains shown) VH: EVQLLESGGGLVQPGGSLRLSCAASGFTFDSYSMNWVRQAPGKGLEWVSNINYNGGYTGYADSVKGRFTISRDNSKNTLYLQMNSLRAEDTAVYYCARSANWHDTALDYWGQGTLVTVSS VL: DIQMTQSPSSLSASVGDRVTITCRASQSILSYVNWYQQKPGKAPKLVIYAATSRHSGVPSRFSGSGSGTDFTLTISSLQPEDFATYYCQQSYENPLTFGGGTKVEIK 0.165

Requested field: optical density. Item: 373_E06 (antibody, V domains shown) VH: EVQLLESGGGLVQPGGSLRLSCAASGFTFDSYSMNWVRQAPGKGLEWVAGINYNSGYKSYADSVKGRFTISRDNSKNTLYLQMNSLRAEDTAVYYCARSATWHDTHLDYWGQGTLVTVSS VL: DIQMTQSPSSLSASVGDRVTITCRASQSILRYLNWYQQKPGKAPKLLIYAATSLHSGVPSRFSGSGSGTDFTLTISSLQPEDFATYYCQQSYDNPLTFGGGTKVEIK 0.187

Requested field: optical density. Item: 374_F04 (antibody, V domains shown) VH: EVQLLESGGGLVQPGGSLRLSCAASGFTFSSYGMNWVRQAPGKGLEWVSGINYNSGYKSYADSVKGRFTISRDNSKNTLYLQMNSLRAEDTAVYYCARSANWHDTALDYWGQGTLVTVSS VL: DIQMTQSPSSLSASVGDRVTITCRASQSILTYVNWYQQKPGKAPKLLIYAATSRASGVPSRFSGSGSGTDFTLTISSLQPEDFATYYCQQSYNSPLTFGGGTKVEIK 0.163

Requested field: optical density. Item: 365_F07 (antibody, V domains shown) VH: EVQLLESGGGLVQPGGSLRLSCAASGFTFSSYSMNWVRQAPGKGLEWVSNINYNGGYKSYADSVKGRFTISRDNSKNTLYLQMNSLRAEDTAVYYCARSATWHDTALDYWGQGTLVTVSS VL: DIQMTQSPSSLSASVGDRVTITCRASQSILSYVNWYQQKPGKAPKLVIYAATSRASGVPSRFSGSGSGTDFTLTISSLQPEDFATYYCQQSYDLPLTFGGGTKVEIK 0.331

Requested field: optical density. Item: 376_B07 (antibody, V domains shown) VH: EVQLLESGGGLVQPGGSLRLSCAASGFTFDSYSMNWVRQAPGKGLEWVSGINYNSGYTSYADSVKGRFTISRDNSKNTLYLQMNSLRAEDTAVYYCARSATWHDTALDYWGQGTLVTVSS VL: DIQMTQSPSSLSASVGDRVTITCRASQSILSYLNWYQQKPGKAPKLVIYYVSNRASGVPSRFSGSGSGTDFTLTISSLQPEDFATYYCQQSYDNPLTFGGGTKVEIK 0.234

Data origin, for the record: patent US20210380703A1
